// provenance: paper PMC8565334

- TESTED_TARGET: TprA (Pseudomonas aeruginosa PA14, UniProt A0A0H2ZFZ8 1-84)
- ASSAY_COMMENT: EMSA; 1 uM TprA
- EXPERIMENTAL_CONDITIONS: protein: recombinant; tags: His-tag removed by TEV; chain copies: 2; label: 5'-Cy5 on strand 1; blunt
REPORTED_ENDPOINT: binding result

| BINDER | REPORTED_ENDPOINT | REPORTED_VALUE |
| --- | --- | --- |
| R2 (dsDNA) DNA 1: AGTACTGAATCCAGCCACTACCAAGGGGTTAACTGATGCCAGGCTTGGAAATACGGAGCCTTTCCAAGCGACTAAAACAAAGAAGAAAGCTCCCCAGAAA DNA 2: TTTCTGGGGAGCTTTCTTCTTTGTTTTAGTCGCTTGGAAAGGCTCCGTATTTCCAAGCCTGGCATCAGTTAACCCCTTGGTAGTGGCTGGATTCAGTACT | binding result | no binding |
| R5 (dsDNA) DNA 1: CCTAGTCATCGAGAAATCCCCTCCCCTGTTGCCGAGTATTTCCTGCTGATGCGTGGCGGATGGCCTGCCACTGTGTGCCCCATCATCAAAGGGGGCCTCA DNA 2: TGAGGCCCCCTTTGATGATGGGGCACACAGTGGCAGGCCATCCGCCACGCATCAGCAGGAAATACTCGGCAACAGGGGAGGGGATTTCTCGATGACTAGG | binding result | no binding |
| R4 (dsDNA) DNA 1: TTTCTAACAACGATTCCCACCTGGCTCGCTTTAGGCGTAACATGAAAAACCTTCATCGCTCCTAATCCGTTTCCCTTACGCCTGCCTCGCTCACCCTCTG DNA 2: CAGAGGGTGAGCGAGGCAGGCGTAAGGGAAACGGATTAGGAGCGATGAAGGTTTTTCATGTTACGCCTAAAGCGAGCCAGGTGGGAATCGTTGTTAGAAA | binding result | no binding |
| R1 (dsDNA) DNA 1: TTGCAGGGGTTTCGGAGAAAAAACCTGTGACCCAGAACTCTTTTTCCGTATATTTTAAAGCGAAGTCTTCAACAAGCCTTACCGAGAAAGGAAACAGGAT DNA 2: ATCCTGTTTCCTTTCTCGGTAAGGCTTGTTGAAGACTTCGCTTTAAAATATACGGAAAAAGAGTTCTGGGTCACAGGTTTTTTCTCCGAAACCCCTGCAA | binding result | no binding |
| R3 (dsDNA) DNA 1: AATTTAGCCCAATAGTATTTAAAGCTCAATTAGCACCCCGTACTGTCTGACCTGAGTTCAACAAAGCATTCTAAAACGATTAGAACTTCTATTTTATCCA DNA 2: TGGATAAAATAGAAGTTCTAATCGTTTTAGAATGCTTTGTTGAACTCAGGTCAGACAGTACGGGGTGCTAATTGAGCTTTAAATACTATTGGGCTAAATT | binding result | binds |
